Test system: Bacillus subtilis
Assay: cleaved RNA product abundance (RNA/gDNA barcode ratio) relative to median wild-type variant (ratio to wild type); higher = more accumulation of the downstream cleavage product
Conditions: experiment (reporter, strain, medium): exp 4a: truncated aprE reporter, strain BJT201 with 2% xylose (RNase J1 expressed); cleavage site: cggR-gapA (positions -7 to +36 mutated)
result.type: cleaved RNA product abundance
Write the value as a bare number.

Req: Reported cleaved RNA product abundance for ACAGACGAAGGAGCCGCACAGAAGTTATTAAGGGATTAATAATCACTCAATATAAATATCTCTCACTTATTTAAA : what is it?
Resp: 0.293

Req: Next entry: ACAGACGAAGGAGCCGCAAAGAAGTTATTCAGGGATGAATTATCCCTCAATATAAATATCTCTCACTTATTTAAA
Resp: 0.629

Req: Next entry: ACAGACGAAGGAGCCGCAAAGAAGTTATTAAGGGATGAATAATCCCACAATATAAATATTTCTCACTTATTTAAA
Resp: 0.386

Req: Next entry: ACAGACGAAGGAGCCGCAAAGAAGTTGTTAAGGGCTGAATAATCCCTCAATATAAATATCTCTCACTTATTTAAA
Resp: 0.198

Req: Next entry: ACAGACGAAGGAGCCGCAAAGAAGTTATTAAAGGATGAATAATCCCTCAATATAAATCTCTCTCACTTATTTAAA
Resp: 0.208

Req: Next entry: ACAGACGAAGGAGCCGCAAAGAAGTTATTAAGGGATAAATAATCCCTCACTATAAATATCTCTCACTTATTTAAA
Resp: 0.193

Req: Next entry: ACAGACGAAGGAGCCGCAAAGAAGTTATAAAGGGATCAATAATCCCTCAATATAAATATCTCTCACTTATTTAAA
Resp: 0.434
